# CONDITION_NOTES: 298.15 K; 101.33 kPa; Liquid; Capillary tube (Ostwald / Ubbelohde) method
REPORTED_METRIC: viscosity (mPa·s)
# unit: mPa·s | format: bare number

Below are worked cases with known answers.
OCCCCO : 72.33
OCCO : 16.87
OCCCO : 41.36

The recorded viscosity for entry `O` equals 0.806

###

Item-by-item account of viscosity
# CONDITION_NOTES: 308.15 K; 101.33 kPa; Liquid; Capillary tube (Ostwald / Ubbelohde) method
# unit: mPa·s | format: bare number

Below are worked cases with known answers.
OCCCO : 27
O : 0.661
OCCO : 11.34

Okay, now this compound:
The recorded viscosity for entry `OCCCCO` equals 44.11

Entry source: the NIST ThermoML archive (doi:10.1016/j.jct.2012.11.016)
